# Study target: LPA2 (Homo sapiens, UniProt Q9HBW0)
# Sequence (Q9HBW0 whole entry, species assumed): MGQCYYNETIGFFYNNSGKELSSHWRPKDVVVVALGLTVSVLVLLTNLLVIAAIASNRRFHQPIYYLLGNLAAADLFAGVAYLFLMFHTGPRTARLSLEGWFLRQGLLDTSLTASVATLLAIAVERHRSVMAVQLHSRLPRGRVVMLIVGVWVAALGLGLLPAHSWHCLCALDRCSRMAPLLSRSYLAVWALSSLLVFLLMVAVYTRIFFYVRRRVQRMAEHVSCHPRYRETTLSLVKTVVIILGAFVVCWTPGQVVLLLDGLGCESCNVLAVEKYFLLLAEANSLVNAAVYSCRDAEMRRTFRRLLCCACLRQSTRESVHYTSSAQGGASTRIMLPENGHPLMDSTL
# Protocol details: LPA agonist/antagonist activity at LPA2 (Table 2)

[
  {
    "Compound": "COC(=O)C(CCC(=O)O)N1C(=O)c2ccccc2C1=O (stereo not drawn)",
    "IC50 [nM]": 100
  },
  {
    "Compound": "O=C(O)/C=C/C(=O)Nc1cccc(NC(=O)/C=C/C(=O)O)c1C(=O)O",
    "IC50 [nM]": 355
  },
  {
    "Compound": "O=C(O)CCC(NC(=O)OCc1ccccc1)C(=O)NC(Cc1ccccc1)C(=O)O (stereo not drawn)",
    "IC50 [nM]": 20
  }
]
